# subject of test: ELK1 (Homo sapiens, UniProt P19419 1-428)
# Sequence: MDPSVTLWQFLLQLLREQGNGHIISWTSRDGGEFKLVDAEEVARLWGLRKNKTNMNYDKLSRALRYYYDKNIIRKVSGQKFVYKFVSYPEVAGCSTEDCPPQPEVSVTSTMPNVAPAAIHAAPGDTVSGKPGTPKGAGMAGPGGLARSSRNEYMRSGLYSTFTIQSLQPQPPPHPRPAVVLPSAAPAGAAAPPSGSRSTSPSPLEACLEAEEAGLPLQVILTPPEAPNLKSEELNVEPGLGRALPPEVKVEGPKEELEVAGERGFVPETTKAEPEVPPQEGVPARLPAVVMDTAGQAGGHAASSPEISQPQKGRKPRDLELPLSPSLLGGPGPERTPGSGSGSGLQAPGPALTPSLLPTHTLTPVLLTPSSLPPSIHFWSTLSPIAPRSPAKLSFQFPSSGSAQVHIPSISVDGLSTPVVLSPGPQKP
# procedure text: custom PBM; custom protein-binding microarray; buffer, salt, pH and temperature not stated; high values mean tight binding
# run conditions: dsDNA, one strand shown
The full ranking holds about 1,300 sequences; the median of “log fluorescence intensity” is about 8.9, and the highest 2% start at about 13. The full list was thinned out, with the highest values kept by preference.
experimental endpoint: binding signal

I'm hoping you can list binding signal for every sequence here, please.
1. CGGAAGTGTCGTAAACGTCGCATATCCGGTTCTTCTGTCTTGATTCGCTTGACGCTGCTG
2. CGGAAGTGTCGTAAACGTCAGATATCCGGTTCTTCTGTCTTGATTCGCTTGACGCTGCTG
3. CGGAAGTGTCGTAAAGGTCGGATATCCGGTTCTTCTGTCTTGATTCGCTTGACGCTGCTG
4. TCCGGCTACCAGCTCCACCCACTTCATGCCTTGTAGGTCTTGATTCGCTTGACGCTGCTG
5. CGGAAGTGTCGTAAACCTCGGATATCCGGTTCTTCTGTCTTGATTCGCTTGACGCTGCTG

Result:
["11.6 log fluorescence intensity", "11.2 log fluorescence intensity", "12.4 log fluorescence intensity", "8.92 log fluorescence intensity", "12.2 log fluorescence intensity"]

Each sequence below has a reported value. Please supply its binding signal.
1. GGAAAAAGGCCCTGGGTAACACCGGAAGTGGGCTTAGTCTTGATTCGCTTGACGCTGCTG
2. GGAAAAAGGCCCCGGGTAACACCGGAAGTGGGCTTAGTCTTGATTCGCTTGACGCTGCTG
3. GGAAAAAGGCCCGGGGTAACACCGGAAGTGGGCTTAGTCTTGATTCGCTTGACGCTGCTG

Result:
["11.1 log fluorescence intensity", "12.6 log fluorescence intensity", "11.8 log fluorescence intensity"]

// for each sequence in input: emit binding signal
1. CGTAAGTGTCGTAAACGTCGGATATCCGGTTCTTCTGTCTTGATTCGCTTGACGCTGCTG
2. CGGAAGTGTCGTAAACGTCGGATATCCGGTTCTTATGTCTTGATTCGCTTGACGCTGCTG
3. CGGAAGTGTCGTAAATGTCGGATATCCGGTTCTTCTGTCTTGATTCGCTTGACGCTGCTG

Result:
1: 12.4 log fluorescence intensity; 2: 12.4 log fluorescence intensity; 3: 12.7 log fluorescence intensity

Below is a list of sequences. For each, state its recorded binding signal.
1. CGGAAGTGTCGTAAACGCCGGATATCCGGTTCTTCTGTCTTGATTCGCTTGACGCTGCTG
2. CGAAAGTGTCGTAAACGTCGGATATCCGGTTCTTCTGTCTTGATTCGCTTGACGCTGCTG
3. CAGAAGTGTCGTAAACGTCGGATATCCGGTTCTTCTGTCTTGATTCGCTTGACGCTGCTG
4. CGGAAGTGTCGTAAACGTCGGATATCCGGTTCTTCGGTCTTGATTCGCTTGACGCTGCTG

Result:
1: 13.3 log fluorescence intensity; 2: 12.5 log fluorescence intensity; 3: 12.6 log fluorescence intensity; 4: 12.4 log fluorescence intensity

Data credit: paper PMC6602471
